SYSTEM: T1, MBP-STF full length (STENOFOLIA) (Medicago truncatula, UniProt G0ZGT3 1-358)
T1 sequence: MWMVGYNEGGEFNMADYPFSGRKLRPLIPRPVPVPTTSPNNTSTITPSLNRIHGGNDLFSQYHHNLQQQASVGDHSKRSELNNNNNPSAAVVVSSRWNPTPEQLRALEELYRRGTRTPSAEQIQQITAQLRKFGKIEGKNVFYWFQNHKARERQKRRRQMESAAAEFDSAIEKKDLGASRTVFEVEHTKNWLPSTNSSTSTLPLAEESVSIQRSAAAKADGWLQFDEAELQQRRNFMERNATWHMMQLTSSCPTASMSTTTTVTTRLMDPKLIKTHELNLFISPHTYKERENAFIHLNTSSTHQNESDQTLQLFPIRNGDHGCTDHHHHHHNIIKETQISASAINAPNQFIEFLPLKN
TEST DETAILS: EMSA; 10 mM Tris pH 7.5, 50 mM KCl, 1 mM DTT, 2.5% glycerol, 0.05% NP-40, 5 mM MgCl2, 0.5 mM EDTA, 5 ng/uL poly(dI.dC), 1 ug protein, 100 fmol probe, room temperature 40 min
TEST CONDITIONS: protein: recombinant; tags: MBP (N-terminal, pMAL-c2X); label: 3' biotin; blunt

BINDER: TaACC-B1 probe (dsDNA) DNA 1: TTCTTCCAGGTGAATACACAGCACTAACATGGCATAATCTGACAGGATAAATCTCCTTATCGATCTATCCTTAATGCTCATCTGCTCTCTCTCTCTCTCTCTCTCTCTTTTTCGGTGGTGCGTGCAGGTCCTGGACCACGGCATCTCGACGGAGCTGATGGACAAGGTGGAGAAGATGACCAAGG DNA 2: CCTTGGTCATCTTCTCCACCTTGTCCATCAGCTCCGTCGAGATGCCGTGGTCCAGGACCTGCACGCACCACCGAAAAAGAGAGAGAGAGAGAGAGAGAGAGCAGATGAGCATTAAGGATAGATCGATAAGGAGATTTATCCTGTCAGATTATGCCATGTTAGTGCTGTGTATTCACCTGGAAGAA
binding result: binds
--
BINDER: Ta6SFT-A1 probe (dsDNA) DNA 1: ACTCCACGCACTAACTTTTTTAATAAGGTCTTCTGTGTGGGGAAAAAGACGGGATCTCTCTCTCTAGACATAATCAAAAGGGATTGTTTAACTCACACCAAATTTGGAGGAAAACTTTGACAGCAAAACAGGGGAAAACAGAGTTTCCATAGCGGGTTGGGGGTTCACTTCACAGTGGCGTAGATTGGA DNA 2: TCCAATCTACGCCACTGTGAAGTGAACCCCCAACCCGCTATGGAAACTCTGTTTTCCCCTGTTTTGCTGTCAAAGTTTTCCTCCAAATTTGGTGTGAGTTAAACAATCCCTTTTGATTATGTCTAGAGAGAGAGATCCCGTCTTTTTCCCCACACAGAAGACCTTATTAAAAAAGTTAGTGCGTGGAGT
binding result: binds
--
BINDER: TaBEL-A1 probe (dsDNA) DNA 1: GCTTGCGTGTGTGTGCATCAGAGAGAAAGAGAGAGAGAGAGAGGCCTGCCGCCCAAGATCTCTCTTGATCAGTGCCGAGATCATCAATCAGGGGGGCCTGCCATCCAAGTGGGCATCTCCATTTTTCTTCCTCCTCGAGCTGGTTTCCGAGCCTGATAAAACCACCCTCCCCGGCCTCGCTCAACTGCTCCCCAGC DNA 2: GCTGGGGAGCAGTTGAGCGAGGCCGGGGAGGGTGGTTTTATCAGGCTCGGAAACCAGCTCGAGGAGGAAGAAAAATGGAGATGCCCACTTGGATGGCAGGCCCCCCTGATTGATGATCTCGGCACTGATCAAGAGAGATCTTGGGCGGCAGGCCTCTCTCTCTCTCTCTTTCTCTCTGATGCACACACACGCAAGC
binding result: binds
